- TESTED_SYSTEM: CYP2B6 (Homo sapiens)
- Sequence (P20813 1-491): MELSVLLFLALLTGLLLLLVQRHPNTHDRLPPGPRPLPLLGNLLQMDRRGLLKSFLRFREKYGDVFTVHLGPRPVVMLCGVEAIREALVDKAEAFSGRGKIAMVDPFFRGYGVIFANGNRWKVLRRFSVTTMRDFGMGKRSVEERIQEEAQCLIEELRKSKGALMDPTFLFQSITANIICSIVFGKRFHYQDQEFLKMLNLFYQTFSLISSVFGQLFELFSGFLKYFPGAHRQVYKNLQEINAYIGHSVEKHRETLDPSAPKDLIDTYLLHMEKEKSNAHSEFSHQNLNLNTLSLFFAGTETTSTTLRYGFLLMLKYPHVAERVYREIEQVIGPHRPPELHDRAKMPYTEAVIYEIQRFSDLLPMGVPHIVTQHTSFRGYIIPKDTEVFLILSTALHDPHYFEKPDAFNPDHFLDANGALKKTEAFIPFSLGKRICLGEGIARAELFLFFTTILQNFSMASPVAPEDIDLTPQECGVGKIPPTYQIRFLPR
- Assay type: biochemical
- EXPERIMENTAL_CONTEXT: cotinine formation; nicotine 500 μM; rec CYP2B6 microsomes
OUTCOME_MEASURE: IC50 (µM)
One number for each entry, in µM.

// fetch CYP2B6 (Homo sapiens) IC50 for C=C(C)[C@@H]1CCC(CO)=C[C@H]1c1c(O)cc(CCCCC)cc1O [7-OH-CBD, 7-hydroxy-cannabidiol]
15

###

- TESTED_SYSTEM: CYP2B6 (Homo sapiens)
- Type: biochemical
- EXPERIMENTAL_CONTEXT: read-out: IC50,u (binding-corrected IC50); nornicotine formation; nicotine 100 μM; rec CYP2B6 microsomes; IC50 × fu,inc
OUTCOME_MEASURE: IC50 (nM)
One number for each entry, in nM.

Look at this molecule and give its reported IC50. C=C(C)[C@@H]1CCC(CO)=C[C@H]1c1c(O)cc(CCCCC)cc1O [7-OH-CBD, 7-hydroxy-cannabidiol]
110

###

- TESTED_SYSTEM: CYP2A6 (Homo sapiens, UniProt P11509)
- Sequence (P11509 1-494): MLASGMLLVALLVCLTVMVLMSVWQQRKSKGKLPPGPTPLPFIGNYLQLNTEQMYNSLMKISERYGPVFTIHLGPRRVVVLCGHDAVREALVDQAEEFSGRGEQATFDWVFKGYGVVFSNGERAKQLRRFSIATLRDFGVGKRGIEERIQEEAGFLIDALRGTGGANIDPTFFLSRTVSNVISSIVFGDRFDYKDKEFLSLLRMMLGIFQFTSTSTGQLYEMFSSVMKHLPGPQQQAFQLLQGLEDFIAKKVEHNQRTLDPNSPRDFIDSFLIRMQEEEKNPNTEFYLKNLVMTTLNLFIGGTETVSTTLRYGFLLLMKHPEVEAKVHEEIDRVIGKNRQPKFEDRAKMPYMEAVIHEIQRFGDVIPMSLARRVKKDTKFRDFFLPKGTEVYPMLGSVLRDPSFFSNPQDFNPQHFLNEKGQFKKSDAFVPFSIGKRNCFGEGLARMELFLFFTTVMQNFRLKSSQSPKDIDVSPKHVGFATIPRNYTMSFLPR
- Format: biochemical
- EXPERIMENTAL_CONTEXT: read-out: IC50,u (binding-corrected IC50); cotinine formation; nicotine 100 μM; rec CYP2A6 microsomes; IC50 × fu,inc
OUTCOME_MEASURE: IC50 (nM)
Numbers only, in nM.

Look at this compound and give its reported IC50. C=C(C)[C@@H]1CCC(CO)=C[C@H]1c1c(O)cc(CCCCC)cc1O [7-OH-CBD, 7-hydroxy-cannabidiol]
450
